# credit: the supplement of paper PMC10567573

B1: ZNF449 (parent)
chain: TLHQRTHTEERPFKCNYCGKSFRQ

Variants of: B1
test: protein stability index of a GFP-peptide fusion (GPS, HEK-293T) (PSI 1-6); higher = more stable;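 also: lentivirally expressed fusions sorted by FACS into six bins by GFP to DsRed ratio, PSI derived from sequencing read proportions per bin multiplied by bin number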
details: c terminus: a fixed tail appended
The reader will find reported protein stability index values listed item by item below.
Form rule: numeric answer, no unit written next to it.

L2T ... 2.27

Shift focus to the following entry.
Sample Q4F — what was its protein stability index?
2.42
